system: Escherichia coli TOP10; experiment: shrunken log2 fold change of peptide-encoding DNA abundance (4.5 h post-induction vs induction); higher = less antimicrobial activity (less host growth inhibition); details: time post-induction: 4.5 h; library: site-saturation at positions 5, 18, 19, 20;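 further: peptides expressed intracellularly from a pBAD plasmid library in pooled LB shake-flask culture, induced with 0.3% L-arabinose, DNA abundance read by NGS, three biological replicates, DESeq2 with apeglm shrinkage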
Record form. Attribute: shrunken log2 fold change. Fill in for each entry.
Answers are plain numbers.

Worked examples follow.
[
  {
    "primary_sequence": "RRIRLRPPRLPRPRPRPHDRPRP",
    "shrunken log2 fold change": -0.132
  },
  {
    "primary_sequence": "RRIRSRPPRLPRPRPRPWMRPRP",
    "shrunken log2 fold change": 0.709
  },
  {
    "primary_sequence": "RRIRDRPPRLPRPRPRPFHNPRP",
    "shrunken log2 fold change": -0.271
  },
  {
    "primary_sequence": "RRIRQRPPRLPRPRPRPRRQPRP",
    "shrunken log2 fold change": 0.197
  },
  {
    "primary_sequence": "RRIRDRPPRLPRPRPRPNLPPRP",
    "shrunken log2 fold change": -0.0303
  },
  {
    "primary_sequence": "RRIRGRPPRLPRPRPRPWYPPRP",
    "shrunken log2 fold change": -0.119
  },
  {
    "primary_sequence": "RRIRSRPPRLPRPRPRPLCAPRP",
    "shrunken log2 fold change": 0.281
  },
  {
    "primary_sequence": "RRIRERPPRLPRPRPRPGGWPRP",
    "shrunken log2 fold change": 0.492
  }
]

Please give shrunken log2 fold change for each item listed below.
1. RRIRVRPPRLPRPRPRPATDPRP
2. RRIRWRPPRLPRPRPRPMICPRP
3. RRIRIRPPRLPRPRPRPQMCPRP
4. RRIRVRPPRLPRPRPRPMFHPRP
5. RRIRIRPPRLPRPRPRPVNQPRP
6. RRIRYRPPRLPRPRPRPRGEPRP
7. RRIRVRPPRLPRPRPRPTWRPRP

Given back:
1. 0.132
2. -0.00725
3. 0.0648
4. -0.22
5. 0.0745
6. -0.101
7. 0.686

Please give shrunken log2 fold change for each item listed below.
1. RRIRCRPPRLPRPRPRPVTQPRP
2. RRIRKRPPRLPRPRPRPDDDPRP
3. RRIRARPPRLPRPRPRPATKPRP
4. RRIRERPPRLPRPRPRPVELPRP

Given back:
[-0.15, 3.89, 0.531, -0.0276]

Please give shrunken log2 fold change for each item listed below.
1. RRIRRRPPRLPRPRPRPESHPRP
2. RRIRARPPRLPRPRPRPMGCPRP

Given back:
1. 0.589
2. 0.495

Please give shrunken log2 fold change for each item listed below.
1. RRIRQRPPRLPRPRPRPNDAPRP
2. RRIRCRPPRLPRPRPRPKTAPRP
3. RRIRDRPPRLPRPRPRPFISPRP
4. RRIRTRPPRLPRPRPRPDTKPRP
5. RRIRNRPPRLPRPRPRPKLPPRP
6. RRIRTRPPRLPRPRPRPTVLPRP

Given back:
-0.0276
0.39
-0.0503
-0.212
0.0992
-0.0554

Please give shrunken log2 fold change for each item listed below.
1. RRIRFRPPRLPRPRPRPDMFPRP
2. RRIRQRPPRLPRPRPRPHNFPRP
3. RRIRQRPPRLPRPRPRPEEKPRP
4. RRIRARPPRLPRPRPRPCWDPRP
5. RRIRRRPPRLPRPRPRPLSLPRP
6. RRIRTRPPRLPRPRPRPWFIPRP

Given back:
1. -0.0758
2. -0.154
3. 0.00355
4. -0.102
5. -0.203
6. -0.64

Please give shrunken log2 fold change for each item listed below.
1. RRIRSRPPRLPRPRPRPNQRPRP
2. RRIRCRPPRLPRPRPRPKQSPRP

Given back:
1: 0.0415; 2: 0.107

Please give shrunken log2 fold change for each item listed below.
1. RRIRCRPPRLPRPRPRPIKHPRP
2. RRIRHRPPRLPRPRPRPVNRPRP
3. RRIRDRPPRLPRPRPRPWHIPRP
4. RRIRCRPPRLPRPRPRPWREPRP
5. RRIRHRPPRLPRPRPRPTQFPRP
6. RRIRERPPRLPRPRPRPAETPRP
7. RRIRCRPPRLPRPRPRPHWDPRP
8. RRIRHRPPRLPRPRPRPARPPRP

Given back:
1: -0.389; 2: -0.26; 3: -0.058; 4: 0.13; 5: -0.631; 6: 0.0123; 7: -0.306; 8: 0.502
